assay: Microsomal metabolic stability assay; assay type: in vitro ADME; conditions: pH 7.4; rat liver microsomes, 0.5 mg/mL protein, 1 μM compound; read-out: Rat LM T½
value-type: half-life at 1 μM (min)
Field: numeric (min). Do not append units.

Here is how some molecules turned out for half-life at 1 μM.
smiles-data: [2H]C([2H])([2H])NC(=O)c1cnc(Nc2ccn(C)n2)cc1Nc1ncc2cnn(CC)c2c1OC
half-life at 1 μM / min: 90
//
smiles-data: CCn1ccc2c(c(Nc3cc(Nc4ccc(F)cn4)ncc3C(=O)NC)cn2C)c1=O
half-life at 1 μM / min: 25.3
//
smiles-data: [2H]C([2H])([2H])NC(=O)c1cnc(NC(=O)C2CC2)cc1Nc1csc2c(Cl)cn(C([2H])([2H])[2H])c(=O)c12
half-life at 1 μM / min: 53.5

From here, focus on the item given below.
Recorded half-life at 1 μM of [2H]C([2H])([2H])NC(=O)c1cnc(NC(=O)C2CC2)cc1Nc1cn(C)c2ccn(CC(F)(F)F)c(=O)c12 , please.
19

###

The reader will find reported GI50 values listed item by item below.
target: Ba/F3-TEL-JAK2 cells (Homo sapiens); construct: fused on or other part: Dimerization domain of TEL (ETV6) fused to the JAK2 kinase domain; P41212 (Transcription factor ETV6); assay: Anti-proliferative assay, Ba/F3-TEL-JAK2 cells (Cell-Titer Glo); format: cell-based; details: 72 h, read-out: BaF3-TEL-JAK2 IC50
Sequence (O60674 whole entry, change not shown, the tested form may be a part): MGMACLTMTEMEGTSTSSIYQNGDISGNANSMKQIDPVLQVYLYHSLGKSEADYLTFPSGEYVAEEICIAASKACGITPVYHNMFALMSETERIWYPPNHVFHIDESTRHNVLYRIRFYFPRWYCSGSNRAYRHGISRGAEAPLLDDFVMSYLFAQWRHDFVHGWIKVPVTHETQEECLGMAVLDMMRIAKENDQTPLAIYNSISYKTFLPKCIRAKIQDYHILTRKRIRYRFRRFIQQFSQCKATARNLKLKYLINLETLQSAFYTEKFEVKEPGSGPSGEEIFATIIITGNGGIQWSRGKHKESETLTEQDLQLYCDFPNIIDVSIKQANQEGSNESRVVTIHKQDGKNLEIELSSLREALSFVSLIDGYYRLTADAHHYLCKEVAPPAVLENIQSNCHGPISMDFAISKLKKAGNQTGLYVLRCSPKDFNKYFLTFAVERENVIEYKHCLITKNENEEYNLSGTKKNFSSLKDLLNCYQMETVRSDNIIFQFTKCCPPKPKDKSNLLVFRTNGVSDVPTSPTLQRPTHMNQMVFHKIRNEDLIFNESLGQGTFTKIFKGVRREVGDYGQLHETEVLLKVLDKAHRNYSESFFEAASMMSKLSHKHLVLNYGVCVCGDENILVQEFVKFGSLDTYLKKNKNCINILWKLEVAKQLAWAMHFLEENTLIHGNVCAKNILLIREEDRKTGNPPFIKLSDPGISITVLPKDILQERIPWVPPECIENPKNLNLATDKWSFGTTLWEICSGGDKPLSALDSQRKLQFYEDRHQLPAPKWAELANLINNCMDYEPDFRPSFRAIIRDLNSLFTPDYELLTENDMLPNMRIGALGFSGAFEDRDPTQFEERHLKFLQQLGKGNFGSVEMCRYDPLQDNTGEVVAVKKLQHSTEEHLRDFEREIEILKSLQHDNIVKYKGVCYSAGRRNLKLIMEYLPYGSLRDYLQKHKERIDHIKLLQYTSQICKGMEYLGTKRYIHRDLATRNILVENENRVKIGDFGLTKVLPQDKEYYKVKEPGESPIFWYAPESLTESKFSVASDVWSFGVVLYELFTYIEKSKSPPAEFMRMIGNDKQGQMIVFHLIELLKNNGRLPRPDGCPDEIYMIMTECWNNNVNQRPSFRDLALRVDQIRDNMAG
# value in µM; strip the unit string

Observe how each entry below is paired with its result.
compound: [2H]C([2H])([2H])NC(=O)c1cnc(Nc2cccc(C#N)c2)nc1Nc1cccc(-c2ncn(C)n2)c1OC [Example 19]
GI50 (µM): 4.96
//
compound: CNC(=O)c1cnc2cc1Nc1cc(cc(-c3ncn(C)n3)c1OC)COCc1cccc(n1)N2 [Example 34]
GI50 (µM): 4.35
//
compound: CNC(=O)c1nnc2cc1Nc1cc(cc(-c3ncn(C)n3)c1OC)COCc1cccc(n1)N2 [Example 35]
GI50 (µM): 0.789

Query compound follows.
Request body: readout GI50, system Ba/F3-TEL-JAK2 cells (Homo sapiens), query [2H]C([2H])([2H])NC(=O)c1cnc(Nc2ccc(Cl)cc2)nc1Nc1cccc(-c2ncn(C)n2)c1OC [Example 3] . Return the value.
2.3

###

target: TYK2-JH2 domain (Homo sapiens, UniProt P29597); construct: IC50 on JH2 domain activity (nM); assay: Binding activity test for JH2 domain of TYK2 (Tb-antibody/tracer FRET)
Sequence (P29597 589-875 limits assumed): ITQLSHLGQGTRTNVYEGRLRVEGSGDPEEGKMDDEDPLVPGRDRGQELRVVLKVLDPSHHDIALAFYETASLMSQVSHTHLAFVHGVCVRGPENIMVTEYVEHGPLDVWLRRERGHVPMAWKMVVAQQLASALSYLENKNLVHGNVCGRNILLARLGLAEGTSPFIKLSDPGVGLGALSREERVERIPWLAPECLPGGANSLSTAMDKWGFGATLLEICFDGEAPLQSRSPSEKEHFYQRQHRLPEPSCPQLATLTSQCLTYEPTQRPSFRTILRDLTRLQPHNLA
value-type: pIC50
Hey, just a heads up that pIC50 is the negative log base 10 of the concentration in molar.

molecule: [2H]C([2H])([2H])NC(=O)c1cnc(NC(=O)C2CC2)cc1Nc1ccn2ncc(C(C)C#N)c2c1OC (single isomer, unassigned) [Example 251B]
pIC50: 9.58
//
molecule: COC(=O)c1cnc(NC(=O)C2CC2)cc1Nc1cn(C)c2ccn(C)c(=O)c12
pIC50: 8.48
//
molecule: [2H]C([2H])([2H])NC(=O)c1cnc(NC(=O)C2CC2)cc1Nc1ccn2ncc(CO)c2c1OC
pIC50: 9.06
//
molecule: [2H]C([2H])([2H])NC(=O)c1cnc(NC(=O)C2CC2)cc1Nc1cn(CC)c2ncn(CC(F)(F)F)c(=O)c12
pIC50: 9.22
//
molecule: [2H]C([2H])([2H])NC(=O)c1cnc(NC(=O)C2CC(C)C2)cc1Nc1ccc2cnn(CC)c2c1OC (stereo not shown)
pIC50: 9.01
//
molecule: [2H]C([2H])([2H])NC(=O)c1cnc(NC(=O)C(F)(F)F)cc1Nc1ccc2cnn(CC)c2c1OC
pIC50: 7.59

Would you kindly share the measured pIC50 for CCn1ncc2ccc(Nc3cc(NC(=O)C4CC4)ncc3Cl)c(OC)c21 ?
6.86

###

// values below are reported GI50
molecular target: Ba/F3-FL-TYK2-P760L cells (Homo sapiens, UniProt P29597, P760L, cells depend on it); construct: BaF3-FL-T2P760L (nM); test: Anti-proliferative assay, Ba/F3-FL-TYK2-P760L cells (Cell-Titer Glo); type: cell-based; settings: 72 h, read-out: BaF3-FL-T2P760L IC50
Sequence (P29597 whole entry P760L): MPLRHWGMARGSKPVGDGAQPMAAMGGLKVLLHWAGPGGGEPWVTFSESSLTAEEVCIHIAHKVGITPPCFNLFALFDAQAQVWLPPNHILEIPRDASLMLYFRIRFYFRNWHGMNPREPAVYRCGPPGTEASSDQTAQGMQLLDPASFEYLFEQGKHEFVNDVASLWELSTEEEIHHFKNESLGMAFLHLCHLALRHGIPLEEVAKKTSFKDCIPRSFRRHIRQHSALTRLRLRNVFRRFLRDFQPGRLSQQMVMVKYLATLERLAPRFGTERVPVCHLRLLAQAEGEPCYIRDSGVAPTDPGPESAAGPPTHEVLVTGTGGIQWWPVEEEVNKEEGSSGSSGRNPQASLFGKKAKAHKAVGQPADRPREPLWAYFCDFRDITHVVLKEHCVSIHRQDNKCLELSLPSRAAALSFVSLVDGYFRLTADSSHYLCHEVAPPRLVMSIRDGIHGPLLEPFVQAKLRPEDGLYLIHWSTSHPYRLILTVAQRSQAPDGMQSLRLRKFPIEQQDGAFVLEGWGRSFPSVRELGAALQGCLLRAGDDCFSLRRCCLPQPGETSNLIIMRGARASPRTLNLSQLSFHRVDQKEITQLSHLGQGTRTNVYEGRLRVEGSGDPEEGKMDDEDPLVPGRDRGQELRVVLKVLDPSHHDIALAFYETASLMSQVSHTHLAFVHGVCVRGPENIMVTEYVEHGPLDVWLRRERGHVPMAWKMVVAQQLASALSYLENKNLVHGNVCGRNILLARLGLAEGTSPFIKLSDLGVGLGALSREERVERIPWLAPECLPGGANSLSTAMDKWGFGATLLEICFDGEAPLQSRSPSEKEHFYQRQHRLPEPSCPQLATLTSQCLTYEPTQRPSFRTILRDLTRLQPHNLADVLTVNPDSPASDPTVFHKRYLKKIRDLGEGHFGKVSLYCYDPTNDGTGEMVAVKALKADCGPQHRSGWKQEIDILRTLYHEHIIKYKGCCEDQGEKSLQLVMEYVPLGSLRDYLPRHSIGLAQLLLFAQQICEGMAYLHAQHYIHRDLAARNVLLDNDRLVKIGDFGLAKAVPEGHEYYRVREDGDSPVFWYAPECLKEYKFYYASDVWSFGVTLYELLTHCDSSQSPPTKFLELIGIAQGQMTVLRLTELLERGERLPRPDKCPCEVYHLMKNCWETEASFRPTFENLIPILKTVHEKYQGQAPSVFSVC

Here is how some compounds turned out for GI50.
compound: [2H]C([2H])([2H])NC(=O)c1cnc(NC(=O)C2CC2)cc1Nc1cnn2c1C(=O)N(CC(F)(F)F)CC2
result: 372 nM

compound: CCn1ncc2ccc(Nc3ccnc(NC(=O)C4CC4)c3)c(OC)c21
result: 4070 nM

compound: [2H]C([2H])([2H])NC(=O)c1cnc(NC(=O)C2CC2)cc1Nc1cn(C)c2ccn(CC)c(=O)c12
result: 374 nM

compound: CCn1ncc2scc(Nc3cc(NC(=O)C4CC4)ncc3C(=O)OC)c2c1=O
result: 287 nM

Quick check: GI50 of [2H]C([2H])([2H])NC(=O)c1cnc(Nc2ccn(C3CC3)n2)cc1Nc1ccc2cnn(CC)c2c1OC ?
88.8 nM

Need GI50, item [2H]C([2H])([2H])NC(=O)c1cnc(NC(=O)C2CC2)cc1Nc1ccn2ncc(Cl)c2c1OC
44.7 nM

Request the reported GI50 associated with [2H]C([2H])([2H])NC(=O)c1nnc(NC(=O)C2CC2)cc1Nc1csc2ccn(CC)c(=O)c12
54.3 nM

###

assay: Microsomal metabolic stability assay; assay type: in vitro ADME; settings: pH 7.4; dog liver microsomes, 0.5 mg/mL protein, 1 μM compound; read-out: Dog LM Clint
Decision: microsomal CLint at 1 μM >= 20 µL/min/mg yields 1, all other cases yield -1.

A selection of reference data follows.
compound: [2H]C([2H])([2H])NC(=O)c1cnc(NC(=O)C2CC2)cc1Nc1ccc2ncn(CC)c2c1OC
group: 1
--
compound: [2H]C([2H])([2H])NC(=O)c1cnc(Nc2ccn(C)n2)cc1Nc1ncc2cnn(CC)c2c1OC
group: -1

Now let's try a different one.
Is it the case that CNC(=O)c1nnc(NC(=O)C2CC2)cc1Nc1cn(C)c2ccn(C)c(=O)c12 has microsomal CLint at 1 μM reaching or exceeding 20 µL/min/mg?
-1

###

assay: Microsomal metabolic stability assay; assay type: in vitro ADME; conditions: pH 7.4; rat liver microsomes, 0.5 mg/mL protein, 1 μM compound; read-out: Rat LM Clint
value-type: microsomal CLint at 1 μM (µL/min/mg)
Give your result in µL/min/mg as a bare value.

molecule: CNC(=O)c1nnc2cc1Nc1cc(cc(-c3ncn(C)n3)c1OC)COCc1cccc(n1)N2
value-type: microsomal CLint at 1 μM
number: 63.8
--
molecule: [2H]C([2H])([2H])NC(=O)c1nnc2cc1Nc1cc(cc(-n3cnc(C)n3)c1OC)COCc1nc(ccc1F)N2
value-type: microsomal CLint at 1 μM
number: 22.6
--
molecule: [2H]C([2H])([2H])NC(=O)c1cnc(NC(=O)C2CC2)cc1Nc1csc2cnn(CC(F)(F)F)c(=O)c12
value-type: microsomal CLint at 1 μM
number: 26.1
--
molecule: [2H]C([2H])([2H])NC(=O)c1cnc(NC(=O)C2CC2)cc1Nc1ccc2cnn(CC(N)=O)c2c1OC
value-type: microsomal CLint at 1 μM
number: 4.7
--
molecule: CNC(=O)c1cnc(NC(=O)C2CC2)cc1Nc1csc2c(Cl)cn(C)c(=O)c12
value-type: microsomal CLint at 1 μM
number: 16.9

Could you share which microsomal CLint at 1 μM value was measured for [2H]C([2H])([2H])NC(=O)c1cnc(NC(=O)C2CC2)cc1Nc1cn(C)c2ncn([C@H](C)C(F)(F)F)c(=O)c12 (single isomer, unassigned) [Example 234A] ?
35.3

Quick one: microsomal CLint at 1 μM for [2H]C([2H])([2H])NC(=O)c1cnc(Nc2cccc(C#N)n2)cc1Nc1cn(C)c2c(Cl)cn(CC)c(=O)c12 ?
101

###

# JAK1/TYK2 selectivity per record follows
target: TYK2-JH2 domain (Homo sapiens, UniProt P29597); construct: IC50 on JH2 domain activity (nM); assay: Binding activity test for JH2 domain of TYK2 (Tb-antibody/tracer FRET); conditions: ratio JAK1-JH2 IC50 / TYK2-JH2 IC50
In your answer, state the number alone without any accompanying words.

As a guide, the following entries are already answered.
smiles-data: [2H]C([2H])([2H])NC(=O)c1cnc(NC(=O)C2CC2)cc1Nc1nn(CC2CC2)c2ccn(CC(F)(F)F)c(=O)c12
value-type: JAK1/TYK2 selectivity
number: 106.7

smiles-data: [2H]C([2H])([2H])NC(=O)c1cnc(NC(=O)C2CC2)cc1Nc1ccc2cnn(CC(F)(F)F)c2c1OC
value-type: JAK1/TYK2 selectivity
number: 49.9

smiles-data: C=CCn1cc(Nc2cc(NC(=O)C3CC3)ncc2C(=O)NC)c2c(=O)n(CC)ccc21
value-type: JAK1/TYK2 selectivity
number: 75.9

# next compound below
Consider the compound shown here: [2H]C([2H])([2H])NC(=O)c1cnc(NC(=O)C2CCC2)cc1Nc1ccc2cnn(CC)c2c1OC What is its recorded JAK1/TYK2 selectivity?
38.5
